Reference source for all entries: PubChem BioAssay (NCI)

Assay: NCI Yeast Anticancer Drug Screen. Data for the sgs1 mgt1 strain (AID 161);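 note: 0% = growth of cultures given vehicle only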
Settings: S. cerevisiae sgs1 mgt1 strain, at 50.0 µM, active compounds read high
The panel holds about 79,000 compounds, 15% with a hit somewhere; the sample as a whole holds those more often.
measurement.name: growth inhibition (%)
Numbers only, in %.

INSERT INTO results (compound, measurement_units, obs_value) VALUES
  ('CN1C(=O)OC2C3NC(=O)OC3C(O)C(O)C21 (configuration not stated)', '%', -6.3);

State recorded growth inhibition for all listed compounds.
1. OC12c3ccccc3C1(N1CCOCC1)CCCCC21OCCCO1 (configuration not stated)
2. COc1cc(CO)c(CO)cc1OC

Result:
1: -17.6; 2: -5.65
